tested on: breast cancer cell lines; assay: NCI five-dose testing, subpanel mean; format: cell-based; conditions: subpanel IX: breast cancer
pIC50: −log10 of the molar value.

molecule | pIC50
O=S(=O)(NCCNc1cc(-c2cn(-c3ccccc3)nc2-c2cccc(O)c2)ccn1)c1ccc(C(F)(F)F)cc1 | 5.68
COc1cccc(-c2nn(-c3ccccc3)cc2-c2ccnc(NCCCNS(=O)(=O)c3cccc(F)c3)c2)c1 | 5.46
O=S(=O)(NCCCNc1cc(-c2cn(-c3ccccc3)nc2-c2cccc(O)c2)ccn1)c1ccc(Br)cc1 | 5.95
O=S(=O)(NCCNc1cc(-c2cn(-c3ccccc3)nc2-c2cccc(O)c2)ccn1)c1ccc(F)cc1 | 5.67
CNC(=O)c1cc(Oc2ccc(NC(=O)Nc3ccc(Cl)c(C(F)(F)F)c3)cc2)ccn1 [Sorafenib, reference compound] | 5.67
O=S(=O)(NCCCNc1cc(-c2cn(-c3ccccc3)nc2-c2cccc(O)c2)ccn1)c1ccc(Cl)cc1 | 5.80
O=S(=O)(NCCCNc1cc(-c2cn(-c3ccccc3)nc2-c2cccc(O)c2)ccn1)c1ccc(F)cc1 | 5.57

---

tested on: MDA-MB-468 breast cancer cell line; experiment: NCI five-dose testing; assay type: cell-based; conditions: MDA-MB-468; read-out: TGI (total growth inhibition concentration)
# IC (TGI) per entry

chemical structure | modifier sign | IC (TGI), µM
O=S(=O)(NCCNc1cc(-c2cn(-c3ccccc3)nc2-c2cccc(O)c2)ccn1)c1ccc(Br)cc1 | = | 7.7
O=S(=O)(NCCNc1cc(-c2cn(-c3ccccc3)nc2-c2cccc(O)c2)ccn1)c1ccc(F)cc1 | = | 5.3
O=S(=O)(NCCCNc1cc(-c2cn(-c3ccccc3)nc2-c2cccc(O)c2)ccn1)c1ccc(Cl)cc1 | = | 4.6
O=S(=O)(NCCNc1cc(-c2cn(-c3ccccc3)nc2-c2cccc(O)c2)ccn1)c1ccc(Cl)cc1 | = | 7.66
COc1cccc(-c2nn(-c3ccccc3)cc2-c2ccnc(NCCNS(=O)(=O)c3ccc(Cl)cc3)c2)c1 | > | 100
